# Assay Details: Water solubility at the designated pH
# Type: physicochemical
# Particulars: water solubility at pH 7
Endpoint Label: solubility (mg/mL)

{"Compound": "CCC(CO)Nc1ncc(C)c(-c2c[nH]c(C(=O)NC(CO)c3cccc(Cl)c3)c2)n1 (stereo not shown) [Parent, reference compound]", "Unit Info": "mg/mL", "Meas Value": 0.015}

----------
# Assay Details: Water solubility at the designated pH
# Type: physicochemical
# Particulars: water solubility at pH 2.2
Counter-ions that a name gives are not always drawn.
Endpoint Label: solubility (mg/mL)

{"Compound": "CC[C@H](COC(C)=O)Nc1ncc(C)c(-c2c[nH]c(C(=O)N[C@H](COC(C)=O)c3cccc(Cl)c3)c2)n1 [I-1 (HCl salt)]", "Meas Value": 19}

----------
# Assay Details: Water solubility at the designated pH
# Assay type: physicochemical
# Particulars: water solubility at pH 3.3
# Description: As described herein, the present compounds are useful as prodrugs and, accordingly, impart improved physical and/or physiological characteristics over the parent compound. Such characteristics include half-life and water solubility. In certain embodiments, a compound of the present invention provides improvement with regard to one or more physical or physiological characteristics. […]

{"Smi": "CC[C@H](COC(=O)[C@@H](N)C(C)C)Nc1ncc(C)c(-c2c[nH]c(C(=O)N[C@H](COC(=O)[C@@H](N)C(C)C)c3cccc(Cl)c3)c2)n1", "solubility": "11.5 mg/mL"}

----------
# Assay Details: Water solubility at the designated pH
# Format: physicochemical
# Particulars: water solubility at pH 2.5
Counter-ions that a name gives are not always drawn.
Endpoint Label: solubility (mg/mL)

{"Compound": "CC[C@H](COC(=O)COCCOC)Nc1ncc(C)c(-c2c[nH]c(C(=O)N[C@H](COC(=O)COCCOC)c3cccc(Cl)c3)c2)n1 [I-21 Ms salt]", "Unit Info": "mg/mL", "Meas Value": 12.4}

----------
# Assay Details: Water solubility at the designated pH
# Format: physicochemical
# Particulars: water solubility at pH 3.8
Counter-ions that a name gives are not always drawn.

{"Compound": "CC[C@H](COC(=O)[C@@H](NC)C(C)C)Nc1ncc(C)c(-c2c[nH]c(C(=O)N[C@H](COC(=O)[C@@H](NC)C(C)C)c3cccc(Cl)c3)c2)n1 [I-20 (HCl salt), tris HCl salt]", "solubility": "7710 µg/mL"}

----------
# Assay Details: Water solubility at the designated pH
# Assay type: physicochemical
# Particulars: water solubility at pH 6.87
Endpoint Label: solubility (mg/mL)

{"Smi": "CC[C@H](COC(=O)CCC(=O)O)Nc1ncc(C)c(-c2c[nH]c(C(=O)N[C@H](COC(=O)CCC(=O)O)c3cccc(Cl)c3)c2)n1", "Endpoint Label": "solubility", "Unit Info": "mg/mL", "Meas Value": 12.6}
